# TESTED_TARGET: T1, human VPAC2 receptor (human, UniProt P41587 24-438)
# T1 sequence (looked up): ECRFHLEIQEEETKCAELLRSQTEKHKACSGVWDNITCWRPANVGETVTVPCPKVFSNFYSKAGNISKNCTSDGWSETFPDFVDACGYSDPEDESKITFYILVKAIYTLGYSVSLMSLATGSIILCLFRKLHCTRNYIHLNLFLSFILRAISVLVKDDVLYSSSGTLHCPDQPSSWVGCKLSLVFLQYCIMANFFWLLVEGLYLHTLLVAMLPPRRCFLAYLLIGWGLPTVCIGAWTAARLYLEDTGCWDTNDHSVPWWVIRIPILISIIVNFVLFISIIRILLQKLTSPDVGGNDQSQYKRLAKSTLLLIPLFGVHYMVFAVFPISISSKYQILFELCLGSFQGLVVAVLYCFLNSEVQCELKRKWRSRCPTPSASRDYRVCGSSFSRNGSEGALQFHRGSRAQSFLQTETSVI
# ASSAY_EXPLANATION: cell-based or functional assay
Where no end group is shown, it is not given here. The star is where a group is joined. Hexanoyl = CCCCCC(=O)*

>  <BINDER>
Hexanoyl-HSDAVFTENYTRLRKQVAAKKYLQSIKNKRYGGPSSGAPPPS [P159]

>  <EC50 cAMP, Alpha Screen (nM)>
0.17

$$$$
>  <BINDER>
Hexanoyl-HSDAVFTDNYTRLRKQVAAYKYLQSIKNKRYGGPSSGAPPPS [P147]

>  <EC50 cAMP, Alpha Screen (nM)>
0.13

$$$$
>  <BINDER>
HSDAVFTDNYTRLLAKVAAKKYLQSIKNKRYGGPSSGAPPPS [P89]

>  <EC50 cAMP, Alpha Screen (nM)>
1.23

$$$$
